The reported numbers originate from patent US10077261B2.

- study-system: hFASN enzyme (full length) (Homo sapiens, UniProt P49327)
- Construct: 10 μL hFASN enzyme (full length, 300 ng, purified in house); made in house
- Sequence (P49327 whole entry): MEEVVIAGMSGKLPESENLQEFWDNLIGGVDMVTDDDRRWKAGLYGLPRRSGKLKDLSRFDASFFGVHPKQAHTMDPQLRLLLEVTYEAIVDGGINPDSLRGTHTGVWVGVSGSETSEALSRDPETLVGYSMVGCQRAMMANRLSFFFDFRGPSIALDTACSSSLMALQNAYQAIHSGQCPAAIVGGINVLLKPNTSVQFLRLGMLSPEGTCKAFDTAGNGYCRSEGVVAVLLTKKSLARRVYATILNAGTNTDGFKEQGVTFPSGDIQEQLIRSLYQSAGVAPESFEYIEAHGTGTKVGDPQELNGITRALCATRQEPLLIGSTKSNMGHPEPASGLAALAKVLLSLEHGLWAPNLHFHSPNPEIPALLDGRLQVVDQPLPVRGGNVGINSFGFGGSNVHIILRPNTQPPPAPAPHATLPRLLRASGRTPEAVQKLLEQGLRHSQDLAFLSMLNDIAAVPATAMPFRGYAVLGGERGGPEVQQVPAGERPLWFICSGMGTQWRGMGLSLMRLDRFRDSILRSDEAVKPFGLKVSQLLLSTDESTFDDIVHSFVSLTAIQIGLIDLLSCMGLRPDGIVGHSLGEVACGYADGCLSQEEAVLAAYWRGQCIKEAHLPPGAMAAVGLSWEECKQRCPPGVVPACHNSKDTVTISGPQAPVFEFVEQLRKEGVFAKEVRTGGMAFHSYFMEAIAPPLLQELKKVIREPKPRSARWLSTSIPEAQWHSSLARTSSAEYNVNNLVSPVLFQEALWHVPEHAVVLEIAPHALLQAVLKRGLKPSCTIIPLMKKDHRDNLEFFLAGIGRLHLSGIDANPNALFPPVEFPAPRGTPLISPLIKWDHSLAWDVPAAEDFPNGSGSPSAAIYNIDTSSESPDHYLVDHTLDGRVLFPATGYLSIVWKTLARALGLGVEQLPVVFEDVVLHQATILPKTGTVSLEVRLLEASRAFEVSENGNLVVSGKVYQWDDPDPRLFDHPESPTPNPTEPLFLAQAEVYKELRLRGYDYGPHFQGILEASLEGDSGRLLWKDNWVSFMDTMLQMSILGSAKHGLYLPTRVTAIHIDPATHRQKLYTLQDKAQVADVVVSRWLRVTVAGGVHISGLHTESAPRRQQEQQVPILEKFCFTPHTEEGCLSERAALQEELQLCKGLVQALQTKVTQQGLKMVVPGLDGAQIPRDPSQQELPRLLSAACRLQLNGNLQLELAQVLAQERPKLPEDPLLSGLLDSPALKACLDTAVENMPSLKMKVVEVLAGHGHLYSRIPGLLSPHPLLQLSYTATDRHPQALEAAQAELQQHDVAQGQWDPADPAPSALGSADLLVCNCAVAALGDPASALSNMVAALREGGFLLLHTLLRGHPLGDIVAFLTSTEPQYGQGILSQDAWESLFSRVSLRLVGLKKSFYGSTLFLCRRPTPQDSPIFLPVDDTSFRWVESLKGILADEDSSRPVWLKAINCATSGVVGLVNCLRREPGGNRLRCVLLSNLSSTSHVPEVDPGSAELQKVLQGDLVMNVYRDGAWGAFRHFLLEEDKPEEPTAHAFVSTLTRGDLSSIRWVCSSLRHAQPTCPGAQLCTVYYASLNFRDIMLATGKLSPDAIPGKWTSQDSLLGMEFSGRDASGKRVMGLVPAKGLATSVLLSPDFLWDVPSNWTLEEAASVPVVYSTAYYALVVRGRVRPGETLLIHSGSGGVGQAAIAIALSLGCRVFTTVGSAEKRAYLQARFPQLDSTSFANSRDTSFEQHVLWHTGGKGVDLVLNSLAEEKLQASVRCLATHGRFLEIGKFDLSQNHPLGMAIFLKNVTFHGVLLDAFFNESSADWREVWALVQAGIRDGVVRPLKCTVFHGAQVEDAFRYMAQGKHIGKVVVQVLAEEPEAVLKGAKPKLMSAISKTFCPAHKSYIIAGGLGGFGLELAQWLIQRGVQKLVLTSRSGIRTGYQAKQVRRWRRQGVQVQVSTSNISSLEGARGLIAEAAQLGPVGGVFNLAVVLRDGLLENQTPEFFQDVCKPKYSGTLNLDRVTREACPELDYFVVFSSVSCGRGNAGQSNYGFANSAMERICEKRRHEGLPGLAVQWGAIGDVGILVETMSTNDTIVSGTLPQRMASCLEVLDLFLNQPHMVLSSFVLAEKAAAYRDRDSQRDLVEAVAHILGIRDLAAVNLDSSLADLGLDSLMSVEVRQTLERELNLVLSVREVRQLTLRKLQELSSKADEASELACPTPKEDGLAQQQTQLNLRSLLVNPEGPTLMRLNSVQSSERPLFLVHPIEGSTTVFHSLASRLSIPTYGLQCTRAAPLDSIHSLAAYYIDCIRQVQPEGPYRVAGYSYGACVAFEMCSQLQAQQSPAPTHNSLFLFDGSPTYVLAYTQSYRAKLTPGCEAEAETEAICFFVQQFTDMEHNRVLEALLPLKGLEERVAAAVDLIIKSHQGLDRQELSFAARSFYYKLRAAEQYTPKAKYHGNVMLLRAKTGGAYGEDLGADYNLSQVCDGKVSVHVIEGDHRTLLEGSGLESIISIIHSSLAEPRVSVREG
- test-description: Fatty Acid Synthase (FASN) inhibition scintillation proximity assay
- Assay type: biochemical
- measurement-conditions: read-out: Human FASN % inhibition @ 10 μM, 10 μM test compound
parameter-measured: inhibition at 10 µM (%)

| line-notation | parameter-measured | recorded-value |
| --- | --- | --- |
| CS(=O)(=O)N1CCC2(CC1)N=C(c1ccc(-c3ccc4[nH]ccc4c3)cc1)N(CC1CN(C(=O)C3CC3)C1)C2=O | inhibition at 10 µM | 95 |
| O=C(N1CC(CN2C(=O)C3(CCOCC3)N=C2c2ccc(-c3ccc4occc4c3)cc2)C1)C(F)(F)F | inhibition at 10 µM | 7 |
| O=C(C1CC1)N1CC(CN2C(=O)C3(CC3)N=C2c2ccc(-c3cc(Cl)c4cn[nH]c4c3)cc2F)C1 | inhibition at 10 µM | 70 |
| Cn1c(=O)c2cc(-c3ccc(C4=NC5(CC5)C(=O)N4C[C@@H]4CCN(C(=O)C5CC5)C4)cc3)ccc2n1C | inhibition at 10 µM | 74 |
| CCn1cc2cc(-c3ccc(C4=NC5(CC5)C(=O)N4CC4CN(C(=O)C5CC5)C4)cc3)ccc2n1 | inhibition at 10 µM | 61 |
| CC(C)N1CCC2(CC1)N=C(c1ccc(-c3ccc4[nH]ncc4c3)cc1)N(C[C@@H]1CCN(C(=O)C3CC3)C1)C2=O | inhibition at 10 µM | 90 |
| Cc1cc(-c2ccc(Cl)cc2Cl)ccc1C1=NC2(CCCC2)C(=O)N1C[C@@H]1CCN(C(=O)C2CC2)C1 | inhibition at 10 µM | 111 |
| Cn1ncc2cc(-c3ccc(C4=NC5(CCNCC5)C(=O)N4CC4CN(C(=O)C5CC5)C4)cc3)ccc21 | inhibition at 10 µM | 52.1 |

[A] COCCN1CCC2(CC1)N=C(c1ccc(-c3ccc4occc4c3)cc1)N(C[C@@H]1CCN(C(=O)C3CC3)C1)C2=O
[B] O=C(C1CC1)N1CC(CN2C(=O)C3(CC3)N=C2c2ccc(-c3ccc4c(cnn4C4CC4)c3)cc2)C1
[C] O=C(c1nccs1)N1CC(CN2C(=O)C3(CCOCC3)N=C2c2ccc(-c3ccc4cccnc4c3)cc2)C1
Asked: Sort the 3 compounds by inhibition at 10 µM; largest first, smallest last. To answer, arrange all of the labels according to the requested order.
Given back: A, B, C
(A: 97%, B: 48%, C: -14%)
